Data origin: patent US20240392024A1

- testedSystem: T1, TNFR2-His (Sino Biological, 10417-H08H, NP_001057.1 Met1-Asp257, with multi-histidine tag expressed on … (human, UniProt P20333 23-257))
- T1 construct: range 1-257; Bought protein; also called recombinant human TNFR2 protein; TNFR2-His antigen; not shown: C-terminal multi-histidine tag
- T1 sequence (looked up): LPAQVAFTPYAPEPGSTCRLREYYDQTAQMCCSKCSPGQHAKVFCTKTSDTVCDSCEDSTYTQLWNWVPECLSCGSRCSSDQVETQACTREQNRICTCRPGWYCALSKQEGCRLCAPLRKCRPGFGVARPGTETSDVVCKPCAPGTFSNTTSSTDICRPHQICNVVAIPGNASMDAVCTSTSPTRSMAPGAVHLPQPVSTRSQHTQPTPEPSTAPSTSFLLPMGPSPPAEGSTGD
- protocolSummary: BLI, antibody captured on AHC probe, TNFR2 in solution
Decision: kon >= 300000 M⁻¹ s⁻¹ yields Y, all other cases yield N.

Can human-mouse chimeric TNFR2 monoclonal antibody 12E12-hFc (antibody, V domains shown, Mouse V regions of clone 12E12 with human constant regions; also called human-mouse chimeric 12E12 antibody) VH: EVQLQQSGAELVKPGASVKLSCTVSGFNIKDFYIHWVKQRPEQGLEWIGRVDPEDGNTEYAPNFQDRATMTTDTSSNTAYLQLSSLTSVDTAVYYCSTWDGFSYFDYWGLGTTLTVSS VL: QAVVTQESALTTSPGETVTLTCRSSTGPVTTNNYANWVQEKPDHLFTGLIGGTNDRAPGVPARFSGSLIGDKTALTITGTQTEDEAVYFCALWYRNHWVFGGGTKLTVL be said to have kon at or above 300000 M⁻¹ s⁻¹?
Y

Can human-mouse chimeric TNFR2 monoclonal antibody 27F6-hFc (antibody, V domains shown, Mouse V regions of clone 27F6 with human constant regions) VH: EVQLQQSGTVLARPGASVKMSCKTSGYTFTSYWMHWVKQRPGQGLEWIGTIYPGNSDTSYNQKFKGKAKLTAVTSASTAYMELNSLTNEDSAVFYCTRENLLLRSYFFDYWGQGTTLTVSS VL: DIVMTQSPASLAVSLGQRATISCKASQSVDYDGDSYLNWYQQKPGQPPKLLIYAASNLPSGIPARFSGSGSGTDFTLNIHPVEEEDAATYYCQQSNEDPRTFGGGTKLEIK be said to have kon at or above 300000 M⁻¹ s⁻¹?
Y

Can human-mouse chimeric TNFR2 monoclonal antibody 7F2-hFc (antibody, V domains shown, Mouse V regions of clone 7F2 with human constant regions) VH: QVTLKESGPGILQPSQTLSLTCSFSGFSLNTFGLGVGWIRQPSGKGLEWLTHIWWNDDKYYNPALKSRLTISRDTSENLVFLKIANVDTADTATYYCARIEGLRRFDYWGQGTTLTVSS VL: DIQMTQSPSSLSASLGGKVTITCKTSQDINKFIAWYQHKPGKGPRLLIHYTSTLQPGIPSRFSGSGSGRDYSFSISDLEPEDIATYYCLQYANLWAFGGGTKLEIK be said to have kon at or above 300000 M⁻¹ s⁻¹?
N

Can human-mouse chimeric TNFR2 monoclonal antibody 29A1-hFc (antibody, V domains shown, Mouse V regions of clone 29A1 with human constant regions) VH: QVQLQQSGAEVVRPGASVTLSCKASGYTFSDYEMHWVKQTPVHGLEWIGAIDPETGDTAYNQKFKDKARVTADKSSSTAYMELRSLTSEDSAVYYCTRDIHYYGSSLSYFDYWGQGTTLTVSS VL: DIVMTQSQKFMSTSVGDRVSVTCKASQNVGTNVAWYQQKPGQSPKVMIYSASYRYSGAPDRFTGSGSGTDFTLTVNNVQSEDLAEYFCQQYKTYPYTFGGGTKLEIE be said to have kon at or above 300000 M⁻¹ s⁻¹?
N

Can human-mouse chimeric TNFR2 monoclonal antibody 33C12-hFc (antibody, V domains shown, Mouse V regions of clone 33C12 with human constant regions; also called human-mouse chimeric 33C12 antibody) VH: DVKLVESGGGLVKPGGSLKLSCAASGFTFSDYTMSWVRQTPEKRLEWVATISTGGSYTYYPDSVKGRFTISRDNAKNTLYLQMSSLKSEDTAMYYCTRDGGYDGDYFDYWGQGTTLTVSS VL: ENVLTQSPAIMSASPGEKVTMTCRASSSVSSSYLHWYQQKSGASPKLWIYRTSNLASGVPARFSGSGSGTSYSLTISSVEAEDAATYYCQQYSGYPLTFGAGTRLELK be said to have kon at or above 300000 M⁻¹ s⁻¹?
N
